condition-set: in vivo
value-kind: nmole retained per gram of mouse lung after 7 days (nmole per gram)

# compound, numeric-readout
measured = [
    ("Cc1cc(C)c(NC(=O)N2CCN(CC3OC(OC4C(N)CC(N)C(OC5OC(CN)C(O)CC5N)C4O)C(O)C(N)C3O)CC2)c(C)c1NC(=O)N1CCN(CC2OC(OC3C(N)CC(N)C(OC4OC(CN)C(O)CC4N)C3O)C(O)C(N)C2O)CC1 (centres unmarked)", 2.8),
    ("NCC1OC(OC2C(N)CC(N)C(OC3OC(CN4CCN(C(=O)c5ccccc5-c5ccccc5C(=O)N5CCN(CC6OC(OC7C(N)CC(N)C(OC8OC(CN)C(O)CC8N)C7O)C(O)C(N)C6O)CC5)CC4)C(O)C(N)C3O)C2O)C(N)CC1O (centres unmarked)", 4.6),
    ("NCC1OC(OC2C(N)CC(N)C(OC3OC(CN4CCNCC4)C(O)C(N)C3O)C2O)C(N)CC1O (centres unmarked)", 0.8),
    ("NC[C@H]1O[C@H](O[C@H]2[C@H](O)[C@@H](O[C@H]3O[C@H](CO)[C@@H](O)[C@H](N)[C@H]3O)[C@H](N)C[C@@H]2N)[C@H](N)C[C@@H]1O [Tobramycin, reference compound]", 2.1),
    ("NC1CC(O)C(CNC(=O)NCCCCCCCCCCCCNC(=O)NCC2OC(OC3C(N)CC(N)C(OC4OC(CO)C(O)C(N)C4O)C3O)C(N)CC2O)OC1OC1C(N)CC(N)C(OC2OC(CO)C(O)C(N)C2O)C1O (centres unmarked)", 6.6),
]

====

Tested on: A/Panama/2007/99 BVLV008 (H3N2)
run-description: Plaque reduction assay (PRA) in MDCK cells
Format: cell-based, influenza virus
condition-set: Influenza A virus, H3N2, MDCK, plaque numbers reduced by 50%, read-out: EC50 ng/ml PRA A/Pan
Counter-ions that a name gives are not always drawn.
value-kind: EC50

# compound, result
data = [
    ("NC12CC3CC(CC(C3)C1)C2", "157 ng/mL"),
    ("CC(=O)N[C@H]1[C@H]([C@H](O)[C@H](O)CO)OC(C(=O)O)=C[C@@H]1NC(=N)N", "2.7 ng/mL"),
    ("CC(=O)N[C@H]1[C@H]([C@H](OC(=O)NCCCCCCCCCCCCCNC(=O)O[C@H](C(O)CO)[C@@H]2OC(C(=O)O)=C[C@H](NC(=N)N)[C@H]2NC(C)=O)[C@H](O)CO)OC(C(=O)O)=C[C@@H]1NC(=N)N (stereo partly shown) [Example 4, bis(trifluoroacetic acid salt)]", "< 1e-05 ng/mL"),
    ("CCOC(=O)C1=C[C@@H](OC(CC)CC)[C@H](NC(C)=O)[C@@H](N)C1", "0.3 ng/mL"),
]

====

Test system: B/Hong Kong/5/72 BVLV012
run-description: Plaque reduction assay (PRA) in MDCK cells
Format: cell-based, influenza virus
condition-set: MDCK, read-out: EC50 ng/ml PRA B/HongK
Where a name gives a salt, the structure may show the parent alone.
In this section we review reported EC50 values for a set of compounds.

# compound, EC50
measured = [
    ("CC(=O)N[C@H]1[C@H]([C@H](OC(=O)NCCCCCCCCCCCCCNC(=O)O[C@H](C(O)CO)[C@@H]2OC(C(=O)O)=C[C@H](NC(=N)N)[C@H]2NC(C)=O)[C@H](O)CO)OC(C(=O)O)=C[C@@H]1NC(=N)N (stereo partly shown) [Example 4, bis(trifluoroacetic acid salt)]", "0.06 ng/mL"),
    ("CCOC(=O)C1=C[C@@H](OC(CC)CC)[C@H](NC(C)=O)[C@@H](N)C1 [Oseltamivir]", "32 ng/mL"),
    ("CC(=O)N[C@H]1[C@H]([C@H](O)[C@H](O)CO)OC(C(=O)O)=C[C@@H]1NC(=N)N [Compound A]", "21 ng/mL"),
    ("NC12CC3CC(CC(C3)C1)C2 [Amantadine]", "> 10000 ng/mL"),
]

====

Test system: Escherichia coli ATTCC 25922
run-description: Kirby-Bauer disk test, zones of inhibition
Format: cell-based
condition-set: Escherichia coli, ATTCC25922; 30 μg/disk; read-out: diameter of zone of inhibition, Escherichia coli ATTCC 25922

# molecule, zone of inhibition at 30 µg/disc [mm]
rows = [
    ("NCC1OC(OC2C(N)CC(N)C(OC3OC(CN)C(O)C(N)C3O)C2O)C(N)CC1O (centres unmarked) [Compound 2]", 6.3),
    ("NCC1OC(OC2C(N)CC(N)C(OC3OC(CNC(=O)Nc4ccc(Cc5ccc(NC(=O)NCC6OC(OC7C(N)CC(N)C(OC8OC(CN)C(O)CC8N)C7O)C(O)C(N)C6O)cc5)cc4)C(O)C(N)C3O)C2O)C(N)CC1O (centres unmarked) [Compound 13]", 7.1),
    ("Cc1cc(C)c(NC(=O)N2CCN(CC3OC(OC4C(N)CC(N)C(OC5OC(CN)C(O)CC5N)C4O)C(O)C(N)C3O)CC2)c(C)c1NC(=O)N1CCN(CC2OC(OC3C(N)CC(N)C(OC4OC(CN)C(O)CC4N)C3O)C(O)C(N)C2O)CC1 (centres unmarked) [Compound 16]", 6.5),
    ("NC[C@H]1O[C@H](O[C@H]2[C@H](O)[C@@H](O[C@H]3O[C@H](CO)[C@@H](O)[C@H](N)[C@H]3O)[C@H](N)C[C@@H]2N)[C@H](N)C[C@@H]1O [Tobramycin, reference compound]", 18.4),
    ("NCC1OC(OC2C(N)CC(N)C(OC3OC(CN4CCN(Cc5cccc(CN6CCN(CC7OC(OC8C(N)CC(N)C(OC9OC(CN)C(O)CC9N)C8O)C(O)C(N)C7O)CC6)c5)CC4)C(O)C(N)C3O)C2O)C(N)CC1O (centres unmarked) [Compound 17]", 6.5),
]

====

System: Escherichia coli ATTCC 25922
run-description: Kirby-Bauer disk test, zones of inhibition
Format: cell-based
condition-set: Escherichia coli, ATTCC25922; 30 μg/disk; read-out: diameter of zone of inhibition, Escherichia coli ATTCC 25922
Protocol: Antibiotic activities were determined using a standard Kirby-Bauer* test and are reported as diameters (in mm) of zones of inhibition for test strains. All compounds were spotted at 30 μg/disk.
Give 1 when the value for zone of inhibition at 30 µg/disc is at least 8 mm. Give 0 when it is less.

# compound, answer-label
rows = [
    ("NCC1OC(OC2C(N)CC(N)C(OC3OC(CN4CCN(C(=O)Nc5ccc(NC(=O)N6CCN(CC7OC(OC8C(N)CC(N)C(OC9OC(CN)C(O)CC9N)C8O)C(O)C(N)C7O)CC6)cc5)CC4)C(O)C(N)C3O)C2O)C(N)CC1O (stereo not shown)", 1),
    ("NCC1OC(OC2C(N)CC(N)C(OC3OC(COC(=O)NCCCCCCCCCCCCNC(=O)OCC4OC(OC5C(N)CC(N)C(OC6OC(CN)C(O)CC6N)C5O)C(O)C(N)C4O)C(O)C(N)C3O)C2O)C(N)CC1O (stereo not shown)", 0),
    ("NCC1OC(OC2C(N)CC(N)C(OC3OC(CN4CCN(C(=O)Nc5ccc(Cc6ccc(NC(=O)N7CCN(CC8OC(OC9C(N)CC(N)C(OC%10OC(CN)C(O)CC%10N)C9O)C(O)C(N)C8O)CC7)cc6)cc5)CC4)C(O)C(N)C3O)C2O)C(N)CC1O (stereo not shown)", 0),
    ("NCC1OC(OC2C(N)CC(N)C(OC3OC(CN4CCN(C(=O)CCCCCCCCCCCCCC(=O)N5CCCN(CC6OC(OC7C(N)CC(N)C(OC8OC(CN)C(O)CC8N)C7O)C(O)C(N)C6O)C5)CC4)C(O)C(N)C3O)C2O)C(N)CC1O (stereo not shown)", 0),
    ("NC1CC(O)C(CNC(=O)NCCCCCCCCCCCCNC(=O)NCC2OC(OC3C(N)CC(N)C(OC4OC(CO)C(O)C(N)C4O)C3O)C(N)CC2O)OC1OC1C(N)CC(N)C(OC2OC(CO)C(O)C(N)C2O)C1O (stereo not shown)", 0),
    ("NCC[C@H](O)C(=O)N[C@@H]1C[C@H](N)[C@@H](O[C@H]2O[C@H](CN)[C@@H](O)[C@H](O)[C@H]2O)[C@H](O)[C@H]1O[C@H]1O[C@H](CO)[C@@H](O)[C@H](N)[C@H]1O [Amikacin, reference compound]", 1),
    ("NCC1OC(OC2C(N)CC(N)C(OC3OC(CN4CCN(C(=O)c5ccccc5-c5ccccc5C(=O)N5CCN(CC6OC(OC7C(N)CC(N)C(OC8OC(CN)C(O)CC8N)C7O)C(O)C(N)C6O)CC5)CC4)C(O)C(N)C3O)C2O)C(N)CC1O (stereo not shown)", 1),
    ("NCC1OC(OC2C(N)CC(N)C(OC3OC(CN4CCNCC4)C(O)C(N)C3O)C2O)C(N)CC1O (stereo not shown)", 1),
]
